Data origin, for the record: patent US5552444A

# measured_target: 5-HT1A receptor (Rattus norvegicus, UniProt P19327)
# Construct: synaptosomal membranes isolated from cerebral cortex; from tissue; host or cells: rat cerebral cortex, crude synaptosomal membranes (male Sprague-Dawley rats, Harlan Industries)
# Sequence (P19327 whole entry): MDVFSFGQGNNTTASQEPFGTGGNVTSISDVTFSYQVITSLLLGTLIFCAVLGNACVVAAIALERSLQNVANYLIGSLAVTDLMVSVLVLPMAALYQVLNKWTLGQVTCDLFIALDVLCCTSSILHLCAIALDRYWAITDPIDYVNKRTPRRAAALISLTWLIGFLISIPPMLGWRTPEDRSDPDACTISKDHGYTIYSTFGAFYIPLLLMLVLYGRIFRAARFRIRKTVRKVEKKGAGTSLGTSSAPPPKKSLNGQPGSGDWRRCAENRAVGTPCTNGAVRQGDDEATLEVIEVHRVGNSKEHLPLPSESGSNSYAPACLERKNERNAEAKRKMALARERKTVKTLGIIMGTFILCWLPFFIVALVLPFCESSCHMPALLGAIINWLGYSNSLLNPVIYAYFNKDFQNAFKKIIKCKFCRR
# assay_explanation: Inhibition of 3H-8-OH-DPAT binding to rat cerebral cortex synaptosomal membranes (binding at 5HT1a in vitro)
# Set-up: species or system rat (male Sprague-Dawley)
# condition_parameters: rat cerebral cortex membranes; 0.4 nM 3H-8-OH-DPAT; 37° C., 10 min; pH 7.4; read-out: IC50, concentration of test compound required to inhibit the binding of 3H-8-OH-DPAT by 50%
Structures can show the parent of a compound that is named as a salt.
Below is a list of entries, each paired with its recorded IC50 value.
Note: unit pM is implicit; provide only the numeric part.

These recorded examples may help you get a feel for the data.
compound	test_result
CCCN(CCC)C1CCc2cccc(C(=O)CC)c2C1 (centres unmarked) [Example 3, oxalate salt]	800
CCCN(CCC)C1CCc2cccc(C(C)=O)c2C1 (centres unmarked)	800
CCCN(CCC)C1CCc2cccc(C(=O)C3CCCCC3)c2C1 (centres unmarked) [Example 8, oxalate salt]	500
CCCN(CCC)C1CCc2cccc(C(=O)C(F)(F)F)c2C1 (centres unmarked) [Example 2, hydrobromide salt]	29000
CCCCC(=O)c1cccc2c1CC(N(CCC)CCC)CC2 (centres unmarked) [Example 1, oxalate salt]	2200
CCCC(=O)c1cccc2c1CC(N(CCC)CCC)CC2 (centres unmarked) [Example 4, hydrobromide salt]	3000
CCCN(CCC)C1CCc2cccc(C(=O)COC)c2C1 (centres unmarked) [Example 12, oxalate]	5800
CCCN(CCC)C1CCc2cccc(C(=O)c3ccccc3F)c2C1 (centres unmarked)	800
CCCN(CCC)C1CCc2cccc(C(=O)c3ccccc3)c2C1 (centres unmarked) [Example 9, tosylate salt]	3700
CCCN(CCC)C1CCc2cccc(C(=O)CC(C)C)c2C1 (centres unmarked) [Example 6, hydrobromide salt]	400

--- query ---
## Task Input CCCN(CCC)C1CCc2cccc(C(=O)C(C)C)c2C1 (centres unmarked) [Example 5, hydrobromide salt] , output reported IC50.
## Result 400
